Readout: melting point (°C)
Give just the numeric value; °C need not be written.

Compound	melting point, °C
CN(C)CCC(O)(c1ccccc1)C(c1ccccc1)c1cnc2ccc(Br)cc2c1 (stereo not shown) [Compound 8]	180
COc1nc2ccc(Br)cc2cc1C(c1ccc(C)cc1)C(O)(CCN(C)C)c1cccc2ccccc12 (stereo not shown) [Compound 72]	178
CCOc1nc2ccc(Br)cc2cc1C(c1ccccc1)C(O)(CCN(C)C)c1ccccc1 (stereo not shown)	162

*Q* Reported melting point, compound COc1nc2ccc(Br)cc2cc1C(c1ccccc1)C(O)(CCN(C)C)c1cccc(F)c1F (stereo not shown) [Compound 114] : ____
*A* 210

---

- System: Mycobacterium tuberculosis (strain H37RV)
- Measurement description: In-vitro method for testing compounds against M. tuberculosis (resazurin growth inhibition, MIC)
- Assay type: cell-based
- Condition summary: MIC data representing IC90's, 7 days incubation, resazurin fluorescence
Simple rule here: MIC less than 4 microgram/ml is class 1, otherwise class 0.

Compound	Discrete label
COc1nc2c(C)cc(Br)cc2cc1C(c1ccccc1)C(O)(CCN(C)C)c1cccc(F)c1 (single isomer, unassigned) [Compound 220]	class 0
COc1nc2ccc(Br)cc2cc1C(c1ccccc1)C(O)(CCN(C)C)c1ccc(Cl)cc1 (single isomer, unassigned) [Compound 17]	class 1
COc1nc2ccc(Br)cc2cc1C(c1ccccc1)C(O)(CCN(C)C)c1ccc(F)c(F)c1 (racemic) [Compound 195]	class 0
COc1nc2ccccc2cc1C(c1ccccc1)C(O)(CCN(C)C)c1cccc(F)c1 (racemic) [Compound 93]	class 0
COc1nc2ccc(Br)cc2cc1C(c1ccccc1)C(O)(CCN(C)C)c1cccc(F)c1F (stereo not shown) [Compound 113]	class 1

*Q* I wonder whether COc1nc2ccc(F)cc2cc1C(c1ccccc1)C(O)(CCN(C)C)c1ccccc1 (single isomer, unassigned) [Compound 28] has MIC below 4 microgram/ml. Can you tell?
*A* class 1

---

- System: Mycobacterium tuberculosis (strain H37RV)
- Measurement description: In-vitro method for testing compounds against M. tuberculosis (resazurin growth inhibition, MIC)
- Type: cell-based
- Condition summary: MIC data representing IC90's, 7 days incubation, resazurin fluorescence
Simple rule here: MIC less than 8 microgram/ml is 1.0, otherwise 0.0.

Molecule	Study system	Discrete label
COc1nc2ccc(Br)cc2cc1C(c1ccc(C)cc1)C(O)(CCN(C)C)c1cccc2ccccc12 (stereo not shown) [Compound 71]	Mycobacterium tuberculosis (strain H37RV)	1.0
COc1nc2ccc(Br)cc2cc1C(c1ccccc1)C(O)(CCc1ccccc1)CCN(C)C (racemic) [Compound 95]	Mycobacterium tuberculosis (strain H37RV)	0.0
COc1nc2ccc(Br)cc2cc1C(c1ccccc1)C(O)(CCCCN(C)C)c1ccccc1 (single isomer, unassigned) [Compound 65]	Mycobacterium tuberculosis (strain H37RV)	1.0
CCN(C)CCC(O)(c1ccc2ccccc2c1)C(c1ccccc1)c1cc2cc(Br)ccc2nc1OC (stereo not shown) [Compound 142]	Mycobacterium tuberculosis (strain H37RV)	0.0
COc1nc2ccccc2cc1C(c1ccccc1)C(O)(CCN(C)C)c1cccc2ccccc12 (racemic) [Compound 92]	Mycobacterium tuberculosis (strain H37RV)	1.0

From here, focus on the item given below.
*Q* I wonder whether COc1nc2ccc(F)cc2cc1C(c1ccccc1)C(O)(CCN(C)C)c1cc(F)cc(F)c1 (racemic) [Compound 208] has MIC below 8 microgram/ml. Can you tell?
*A* 1.0

Source of measurements: patent US7498343B2
